System under test: TGW6 (THOUSAND-GRAIN WEIGHT 6), IAA-glucose hydrolase (Oryza sativa)
Construct: gene Os06g0623700; recombinant; N-terminal Trx-(His)6 tag cleaved with thrombin; E. coli Rosetta-gami 2(DE3); purified
Sequence (Q69U01 31-350): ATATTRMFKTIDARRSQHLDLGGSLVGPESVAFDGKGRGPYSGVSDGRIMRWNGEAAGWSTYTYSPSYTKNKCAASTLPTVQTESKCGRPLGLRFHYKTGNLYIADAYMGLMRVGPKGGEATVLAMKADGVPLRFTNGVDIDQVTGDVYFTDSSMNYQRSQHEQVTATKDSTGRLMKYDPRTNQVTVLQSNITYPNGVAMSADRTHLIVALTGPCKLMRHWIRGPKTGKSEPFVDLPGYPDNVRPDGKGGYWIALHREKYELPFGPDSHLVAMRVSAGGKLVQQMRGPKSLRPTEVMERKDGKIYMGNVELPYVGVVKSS
Test name: thermal shift (UNCLE, intrinsic Trp fluorescence BCM)
Format: binding
Conditions used: 27.6 μM TGW6, 55.0 μM ligand, 2 mM CaCl2, pH 7.0

[
  {
    "Molecule": "COC(=O)Cc1c[nH]c2ccccc12 [MeIAA, methyl indole 3-acetate]",
    "Tm shift": "> 3 °C"
  },
  {
    "Molecule": "C[C@H](NC(=O)Cc1c[nH]c2ccccc12)C(=O)O",
    "Tm shift": "~ 10 °C"
  },
  {
    "Molecule": "O=C(Cc1c[nH]c2ccccc12)O[C@@H]1O[C@H](CO)[C@@H](O)[C@H](O)[C@H]1O",
    "Tm shift": "~ 5 °C"
  },
  {
    "Molecule": "O=C(O)CCCc1c[nH]c2ccccc12",
    "Tm shift": "> 3 °C"
  },
  {
    "Molecule": "O=C(O)Cc1c[nH]c2c(F)cccc12",
    "Tm shift": "~ 9 °C"
  },
  {
    "Molecule": "O=C(O)Cc1c[nH]c2cccc(F)c12",
    "Tm shift": "~ 7 °C"
  },
  {
    "Molecule": "O=C(O)Cc1c[nH]c2ccccc12",
    "Tm shift": "> 3 °C"
  }
]
